# assay_target: histone deacetylase (HDAC)
# assay_procedure: Inhibition of Histone Deacetylase Enzymatic Activity
# test_settings: substrate Boc-Lys(Ac)-AMC, Fluor-de-Lys developer, 37° C., 20 min; against one or more of HDAC-1 to HDAC-11, SirT1 to SirT7 (isoform not given); read-out: HDAC Inhibitory Activity (IC50)
# IC50 per record follows

{"chemical_string": "O=C1CN(Cc2ccc(C(=O)NO)cc2)c2ccccc2N1", "IC50": "< 0.05 µM"}
{"chemical_string": "O=C(NO)c1ccc(CN2c3ccccc3NC(=O)[C@H]2Cc2ccc(F)cc2)cc1", "IC50": "< 0.05 µM"}
{"chemical_string": "CC(C)(C)Oc1ccc(C[C@@H]2Nc3ccc(C(=O)NO)cc3NC2=O)cc1", "IC50": "2 to 10 µM"}
{"chemical_string": "CSCC[C@@H]1Nc2ccc(C(=O)NO)cc2NC1=O", "IC50": "2 to 10 µM"}
